# credit: ChEMBL document CHEMBL2034933

# Lookup of reported inhibition in vivo at 100 mg/kg keyed by entry
Test system: Rattus norvegicus
experimental-details: Antiinflammatory activity in albino rat assessed as inhibition of carrageenan-induced paw edema at 100 mg/kg, po administered 1 hr prior to carrageenan-challenge measured after 0.5 hrs
Type: functional
Respond with the bare value in %.

Worked cases, answers included:
smi=O=C(CSc1nc(-c2ccc(O)cc2)c(C(=O)O)c(=O)[nH]1)Nn1c(COc2ccc(Cl)cc2Cl)nc2ccccc2c1=O measured_property="inhibition in vivo at 100 mg/kg" unit_abbreviation=% measured_result=32.7
smi=N#Cc1c(-c2ccccc2)nc(SCC(=O)Nn2c(COc3ccc(Cl)cc3Cl)nc3ccccc3c2=O)n(Cc2ccccc2)c1=O measured_property="inhibition in vivo at 100 mg/kg" unit_abbreviation=% measured_result=76
smi=N#Cc1c(Nc2ccc(Cl)cc2)nc(SCC(=O)Nn2c(COc3ccc(Cl)cc3Cl)nc3ccccc3c2=O)nc1-c1ccc(O)cc1 measured_property="inhibition in vivo at 100 mg/kg" unit_abbreviation=% measured_result=65.4
smi=O=C(CSc1nc(-c2ccc(Cl)cc2)c(C(=O)O)c(=O)[nH]1)Nn1c(COc2ccc(Cl)cc2Cl)nc2ccccc2c1=O measured_property="inhibition in vivo at 100 mg/kg" unit_abbreviation=% measured_result=51.9
smi=N#Cc1c(Nc2ccc(O)cc2)nc(SCC(=O)Nn2c(COc3ccc(Cl)cc3Cl)nc3ccccc3c2=O)nc1-c1ccccc1 measured_property="inhibition in vivo at 100 mg/kg" unit_abbreviation=% measured_result=61.5
smi=O=C(CSc1nc(-c2ccccc2)c(C(=O)O)c(=O)[nH]1)Nn1c(COc2ccc(Cl)cc2Cl)nc2ccccc2c1=O measured_property="inhibition in vivo at 100 mg/kg" unit_abbreviation=% measured_result=61.5
smi=Cn1c(SCC(=O)Nn2c(COc3ccc(Cl)cc3Cl)nc3ccccc3c2=O)nc(-c2ccccc2)c(C#N)c1=O measured_property="inhibition in vivo at 100 mg/kg" unit_abbreviation=% measured_result=51.9
smi=N#Cc1c(Nc2ccc(O)cc2)nc(SCC(=O)Nn2c(COc3ccc(Cl)cc3Cl)nc3ccccc3c2=O)nc1-c1ccc(O)cc1 measured_property="inhibition in vivo at 100 mg/kg" unit_abbreviation=% measured_result=80.8
smi=N#Cc1c(-c2ccc(O)cc2)nc(SCC(=O)Nn2c(COc3ccc(Cl)cc3Cl)nc3ccccc3c2=O)[nH]c1=O measured_property="inhibition in vivo at 100 mg/kg" unit_abbreviation=% measured_result=61.5
smi=N#Cc1c(Nc2ccccc2)nc(SCC(=O)Nn2c(COc3ccc(Cl)cc3Cl)nc3ccccc3c2=O)nc1-c1ccccc1 measured_property="inhibition in vivo at 100 mg/kg" unit_abbreviation=% measured_result=71.2

query: Which inhibition in vivo at 100 mg/kg reading was recorded for the compound N#Cc1c(Cl)nc(SCC(=O)Nn2c(COc3ccc(Cl)cc3Cl)nc3ccccc3c2=O)nc1-c1ccc(O)cc1 ?
result: 67.3

query: Which inhibition in vivo at 100 mg/kg reading was recorded for the compound N#Cc1c(Nc2ccc(Cl)cc2)nc(SCC(=O)Nn2c(COc3ccc(Cl)cc3Cl)nc3ccccc3c2=O)nc1-c1ccccc1 ?
result: 51.9

query: Which inhibition in vivo at 100 mg/kg reading was recorded for the compound N#Cc1c(-c2ccc(O)cc2)nc(SCC(=O)Nn2c(COc3ccc(Cl)cc3Cl)nc3ccccc3c2=O)n(Cc2ccccc2)c1=O ?
result: 51.9

query: Which inhibition in vivo at 100 mg/kg reading was recorded for the compound N#Cc1c(Nc2ccccc2)nc(SCC(=O)Nn2c(COc3ccc(Cl)cc3Cl)nc3ccccc3c2=O)nc1-c1ccc(Cl)cc1 ?
result: 36.5

query: Which inhibition in vivo at 100 mg/kg reading was recorded for the compound N#Cc1c(Nc2ccc(O)cc2)nc(SCC(=O)Nn2c(COc3ccc(Cl)cc3Cl)nc3ccccc3c2=O)nc1-c1ccc(Cl)cc1 ?
result: 71.2

query: Which inhibition in vivo at 100 mg/kg reading was recorded for the compound N#Cc1c(-c2ccccc2)nc(SCC(=O)Nn2c(COc3ccc(Cl)cc3Cl)nc3ccccc3c2=O)[nH]c1=O ?
result: 80.8
